The molecules listed here are annotated with their pKa.
# protocol.text: pKa value of the compound (pyridine ring substitutions dependent)
# Assay type: physicochemical
# assay.context: read-out: pKapy

- molecule: "COc1ccnc(C[S+]([O-])c2nc3cc(F)c(F)cc3[nH]2)c1OC (stereo unspecified)"
  pKa: 3.6
- molecule: "COc1ccnc(C[S+]([O-])c2nc3cc(CO)ccc3[nH]2)c1C (stereo unspecified)"
  pKa: 4.7
- molecule: "COc1ccc2[nH]c([S+]([O-])Cc3ncc(C)c(OC)c3C)nc2c1 (stereo unspecified)"
  pKa: 4
- molecule: "COc1c(OCC2CC2)ccnc1C[S+]([O-])c1nc2cc(F)ccc2[nH]1 (stereo unspecified)"
  pKa: 3.8
- molecule: "COc1ccc2[nH]c([S+]([O-])Cc3nccc(OC(C)C)c3C)nc2c1 (stereo unspecified)"
  pKa: 5.1
- molecule: "COc1ccnc(C[S+]([O-])c2nc3c(F)cc(F)cc3[nH]2)c1 (stereo unspecified)"
  pKa: 4.1
- molecule: "COc1ccnc(C[S+]([O-])c2nc3cc4c(cc3[nH]2)CCC4)c1C (stereo unspecified)"
  pKa: 4.9
- molecule: "CCOc1ccnc(C[S+]([O-])c2nc3ccccc3[nH]2)c1C (stereo unspecified)"
  pKa: 4.9
- molecule: "COc1ccnc(C[S+]([O-])c2nc3cc(C(C)(C)C)ccc3[nH]2)c1C (stereo unspecified)"
  pKa: 4.8
- molecule: "Cc1c(OCC(F)(F)F)ccnc1C[S+]([O-])c1nc2ccccc2[nH]1 (stereo unspecified)"
  pKa: 3.9
- molecule: "COc1ccnc(C[S+]([O-])c2nc3c(F)cccc3[nH]2)c1 (stereo unspecified)"
  pKa: 4.4

* * *

Each item that follows carries a reported pKa.
# protocol.text: pKa value of the compound (benzimidazole ring substitutions dependent)
# Assay type: physicochemical
# assay.context: read-out: pKabz
quantity.measured: pKa

- compound: "COc1ccc2[nH]c([S+]([O-])Cc3ncc(C)c(OC)c3C)nc2c1 (stereo unspecified) [OMEPRAZOLE]"
  quantity.measured: "pKa"
  value.measured: 8.7
- compound: "COc1ccnc(C[S+]([O-])c2nc3cc(C(C)(C)C)ccc3[nH]2)c1C (stereo unspecified)"
  quantity.measured: "pKa"
  value.measured: 9.1
- compound: "COc1ccnc(C[S+]([O-])c2nc3c(F)cc(F)cc3[nH]2)c1 (stereo unspecified)"
  quantity.measured: "pKa"
  value.measured: 7.6
- compound: "COc1ccnc(C[S+]([O-])c2nc3cc4c(cc3[nH]2)CCC4)c1C (stereo unspecified)"
  quantity.measured: "pKa"
  value.measured: 9.4
- compound: "Cc1c(OCC(F)(F)F)ccnc1C[S+]([O-])c1nc2ccccc2[nH]1 (stereo unspecified) [LANSOPRAZOLE]"
  quantity.measured: "pKa"
  value.measured: 8.7
- compound: "COc1ccnc(C[S+]([O-])c2nc3cc(F)c(F)cc3[nH]2)c1OC (stereo unspecified)"
  quantity.measured: "pKa"
  value.measured: 7.8
- compound: "COc1c(OCC2CC2)ccnc1C[S+]([O-])c1nc2cc(F)ccc2[nH]1 (stereo unspecified)"
  quantity.measured: "pKa"
  value.measured: 8.4
- compound: "COc1ccnc(C[S+]([O-])c2nc3cc(CO)ccc3[nH]2)c1C (stereo unspecified)"
  quantity.measured: "pKa"
  value.measured: 8.6
- compound: "CCOc1ccnc(C[S+]([O-])c2nc3ccccc3[nH]2)c1C (stereo unspecified)"
  quantity.measured: "pKa"
  value.measured: 8.8
- compound: "COc1ccc2[nH]c([S+]([O-])Cc3nccc(OC(C)C)c3C)nc2c1 (stereo unspecified)"
  quantity.measured: "pKa"
  value.measured: 8.9
- compound: "COc1ccnc(C[S+]([O-])c2nc3c(F)cccc3[nH]2)c1 (stereo unspecified)"
  quantity.measured: "pKa"
  value.measured: 7.5

* * *

# protocol.text: Half life at pH 6 is a measure of the rate by which the compound is converted to the active species.
# assay.context: buffer

- molecule: "COc1ccc2[nH]c([S+]([O-])Cc3ncc(C)c(OC)c3C)nc2c1 (stereo unspecified) [OMEPRAZOLE]"
  units.symbol: "min"
  half-life: 55

* * *

# Test system: Helicobacter pylori
# protocol.text: Urease activity was determined in wild type-H pylori, CCUG 15818, at a concentration of 1 uM
This section presents compounds with their documented Urease activity (% of control) values.

- compound: "CCOc1ccnc(C[S+]([O-])c2nc3ccccc3[nH]2)c1C (stereo unspecified)"
  tested.on: "Helicobacter pylori"
  units.symbol: "%"
  Urease activity (% of control): 76
- compound: "COc1ccc2[nH]c([S+]([O-])Cc3nccc(OC(C)C)c3C)nc2c1 (stereo unspecified)"
  tested.on: "Helicobacter pylori"
  units.symbol: "%"
  Urease activity (% of control): 86
- compound: "COc1c(OCC2CC2)ccnc1C[S+]([O-])c1nc2cc(F)ccc2[nH]1 (stereo unspecified)"
  tested.on: "Helicobacter pylori"
  units.symbol: "%"
  Urease activity (% of control): 104
- compound: "Cc1cc(C)c(C[S+]([O-])c2nc3cc(Cl)ccc3[nH]2)nc1C (stereo unspecified)"
  tested.on: "Helicobacter pylori"
  units.symbol: "%"
  Urease activity (% of control): 97
- compound: "COc1ccc2[nH]c(SCc3ncc(C)c(OC)c3C)nc2c1"
  tested.on: "Helicobacter pylori"
  units.symbol: "%"
  Urease activity (% of control): 109
- compound: "COc1ccc2[nH]c([S+]([O-])Cc3ncc(C)c(OC)c3C)nc2c1 (stereo unspecified)"
  tested.on: "Helicobacter pylori"
  units.symbol: "%"
  Urease activity (% of control): 109
- compound: "COc1ccnc(C[S+]([O-])c2nc3cc4c(cc3[nH]2)CCC4)c1C (stereo unspecified)"
  tested.on: "Helicobacter pylori"
  units.symbol: "%"
  Urease activity (% of control): 36
- compound: "COc1ccnc(C[S+]([O-])c2nc3c(F)cccc3[nH]2)c1 (stereo unspecified)"
  tested.on: "Helicobacter pylori"
  units.symbol: "%"
  Urease activity (% of control): 93
- compound: "COc1ccnc(C[S+]([O-])c2nc3cc(CO)ccc3[nH]2)c1C (stereo unspecified)"
  tested.on: "Helicobacter pylori"
  units.symbol: "%"
  Urease activity (% of control): 72
- compound: "COc1ccnc(C[S+]([O-])c2nc3c(F)cc(F)cc3[nH]2)c1 (stereo unspecified)"
  tested.on: "Helicobacter pylori"
  units.symbol: "%"
  Urease activity (% of control): 106
- compound: "Cc1c(OCC(F)(F)F)ccnc1C[S+]([O-])c1nc2ccccc2[nH]1 (stereo unspecified)"
  tested.on: "Helicobacter pylori"
  units.symbol: "%"
  Urease activity (% of control): 105

* * *

# System: Helicobacter pylori
# protocol.text: Urease activity in H pylori, CCUG 15818, at 10 uM

- molecule: "COc1ccnc(C[S+]([O-])c2nc3c(F)cc(F)cc3[nH]2)c1 (stereo unspecified)"
  units.symbol: "%"
  Urease activity (% of control): 89
- molecule: "COc1ccnc(C[S+]([O-])c2nc3c(F)cccc3[nH]2)c1 (stereo unspecified)"
  units.symbol: "%"
  Urease activity (% of control): 95
- molecule: "COc1c(OCC2CC2)ccnc1C[S+]([O-])c1nc2cc(F)ccc2[nH]1 (stereo unspecified)"
  units.symbol: "%"
  Urease activity (% of control): 94
- molecule: "COc1ccc2[nH]c(SCc3ncc(C)c(OC)c3C)nc2c1"
  units.symbol: "%"
  Urease activity (% of control): 101
- molecule: "COc1ccnc(C[S+]([O-])c2nc3cc(CO)ccc3[nH]2)c1C (stereo unspecified)"
  units.symbol: "%"
  Urease activity (% of control): 38
- molecule: "COc1ccnc(C[S+]([O-])c2nc3cc(C(C)(C)C)ccc3[nH]2)c1C (stereo unspecified)"
  units.symbol: "%"
  Urease activity (% of control): 42

* * *

# protocol.text: Relative retention time of the compound
# Assay type: ADME
quantity.measured: Log k'o

- compound: "COc1c(OCC2CC2)ccnc1C[S+]([O-])c1nc2cc(F)ccc2[nH]1 (stereo unspecified)"
  value.measured: 1.16
- compound: "CCOc1ccnc(C[S+]([O-])c2nc3ccccc3[nH]2)c1C (stereo unspecified)"
  value.measured: 0.92
- compound: "Cc1c(OCC(F)(F)F)ccnc1C[S+]([O-])c1nc2ccccc2[nH]1 (stereo unspecified)"
  value.measured: 1.1
- compound: "COc1ccnc(C[S+]([O-])c2nc3cc(CO)ccc3[nH]2)c1C (stereo unspecified)"
  value.measured: 0.18
- compound: "COc1ccnc(C[S+]([O-])c2nc3c(F)cc(F)cc3[nH]2)c1 (stereo unspecified)"
  value.measured: 0.09
- compound: "COc1ccnc(C[S+]([O-])c2nc3cc4c(cc3[nH]2)CCC4)c1C (stereo unspecified)"
  value.measured: 1.21
- compound: "COc1ccc2[nH]c([S+]([O-])Cc3nccc(OC(C)C)c3C)nc2c1 (stereo unspecified)"
  value.measured: 1.22
- compound: "COc1ccnc(C[S+]([O-])c2nc3cc(C(C)(C)C)ccc3[nH]2)c1C (stereo unspecified)"
  value.measured: 1.55
- compound: "COc1ccc2[nH]c([S+]([O-])Cc3ncc(C)c(OC)c3C)nc2c1 (stereo unspecified)"
  value.measured: 0.83
- compound: "COc1ccnc(C[S+]([O-])c2nc3cc(F)c(F)cc3[nH]2)c1OC (stereo unspecified)"
  value.measured: 0.6
- compound: "COc1ccnc(C[S+]([O-])c2nc3c(F)cccc3[nH]2)c1 (stereo unspecified)"
  value.measured: 0.26
